Entry source: ChEMBL document CHEMBL1201862

- System: RXF 393
- protocol notes: NCI tumour cell line growth inhibition, 48 h
The source made the active and inactive calls. Rule as the data show it: active = GI50 up to about 1.1 µM and inactive = higher.
Give one outcome, nothing more. List: t = active, f = inactive

Past entries and their recorded results:
molecule: O=[N+]([O-])c1cc2oc(COc3ccccc3)nc2cc1Cl
class label: f
//
molecule: NS(=O)(=O)c1ccc(NS(=O)(=O)c2ccc(NC(=O)N(c3ccccc3)c3ccccc3)cc2)cc1
class label: f
//
molecule: Cc1ccc2nc(NC(=O)C(=O)C(C(=O)c3ccc4ccccc4c3)C3OC(=O)c4ccccc43)sc2c1 (stereo not given)
class label: f
//
molecule: Oc1ccc2c3c1OC1C(=NN=C4CCC5(O)C6Cc7ccc(O)c8c7C5(CCN6CC5CC5)C4O8)CCC4(O)C(C2)N(CC2CC2)CCC314 (stereo not given)
class label: f
//
molecule: COc1cc2c(c(OC)c1OC)-c1ccc(SC)c(=O)cc1C(CC(=O)Oc1ccc([N+](=O)[O-])cc1)C2 (stereo not given)
class label: t
//
molecule: CC(C)=CCC/C(C)=C/CCC1(C)C=Cc2c(c3ccccc3oc2=O)O1 (stereo not given)
class label: f

Status in this test for CCCCCCCCCCCNC=O ?
f

Entry O=C1CCCC1C(O)(C(F)(F)F)C(F)(F)F (stereo not given) : call = ?
f

Given CN(C)CCCN1c2ccc(O)cc2Sc2ccc(Cl)cc21 [7-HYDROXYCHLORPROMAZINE] , state the outcome it received in this test.
f

Outcome logged for Cc1ccc2c(=O)cc(-c3ccc(-c4ccccc4)s3)[nH]c2n1 in this assay:
f

Per the assay record, what outcome was assigned to CCCCCCC(O)CC[C@H]1CCC[C@@H](C)N1 (stereo not given in full) ?
f

Test call for this molecule, please: CN(N=O)C(=O)Nc1ccc(C(=O)O)cc1
f
